Species: Homo sapiens
Experiment: Selectivity ratio of IC50 for CDK1/Cyclin-A2 (unknown origin) to IC50 for CDK6/Cyclin-D3 (unknown origin)
Quick rule for you: Ratio IC50 at 30 or higher means true, lower means false.

Is Ratio IC50 at least 30? Consider CC1=Nc2c(F)cc(-c3nc(Nc4ccc(C5CCN(CCO)CC5)cn4)ncc3F)cc2C12CCCC2
true

Is Ratio IC50 for CCN1CCN(Cc2ccc(Nc3ncc(F)c(-c4ccc5c(c4)C4(CCCC4)C(C)=N5)n3)nc2)CC1 at or above 30?
true

Test whether the molecule CCC1(C)C(C)=Nc2c(F)cc(-c3nc(Nc4ccc(N5CCNCC5)cn4)ncc3F)cc21 (stereo not given) records Ratio IC50 of 30 or higher.
false

Could you verify whether the entry CC1=Nc2c(F)cc(-c3nc(Nc4ccc(C5CCNCC5)cn4)ncc3F)cc2C12CCCC2 shows Ratio IC50 of no less than 30?
true

Does the reported Ratio IC50 for CCN1CCC(c2ccc(Nc3ncc(F)c(-c4cc(F)c5c(c4)C(C)(CC)C(C)=N5)n3)nc2)CC1 (stereo not given) fall at or above the 30 mark?
false

====

Organism: Homo sapiens
Assay: Selectivity ratio of IC50 for CDK1/Cyclin-A2 (unknown origin) to IC50 for CDK6/Cyclin-D3 (unknown origin)
Answer each item with its documented Ratio IC50.
API note: the answer field is a bare number with no unit suffix.

Suppose we examine the compound CCC1(C)C(C)=Nc2ccc(-c3nc(Nc4ccc(C5CCN(C)CC5)cn4)ncc3F)cc21 (centres undefined) ; what Ratio IC50 value has been reported?
6

Given the entry CC1=Nc2ccc(-c3nc(Nc4ccc(C5CCNCC5)cn4)ncc3F)cc2C12CCCC2 , report its measured Ratio IC50.
7

What value of measured Ratio IC50 is listed for CC1=Nc2ccc(-c3nc(Nc4ccc(N5CCN(C)CC5)cn4)ncc3F)cc2C12CCCC2 ?
46

Which Ratio IC50 value belongs to CCN1CCN(c2ccc(Nc3ncc(F)c(-c4cc(F)c5c(c4)C(C)(CC)C(C)=N5)n3)nc2)CC1 (centres undefined) ?
1

Which value of Ratio IC50 has been reported for CCC1(CC)C(C)=Nc2c(F)cc(-c3nc(Nc4ccc(N5CCN(C)CC5)cn4)ncc3F)cc21 in the records?
11

Please report the recorded Ratio IC50 for CCC1(C)C(C)=Nc2c(F)cc(-c3nc(Nc4ccc(N5CCN(C)CC5)cn4)ncc3F)cc21 (centres undefined) .
153

Find the recorded Ratio IC50 belonging to CCN1CCC(c2ccc(Nc3ncc(F)c(-c4ccc5c(c4)C4(CCCC4)C(C)=N5)n3)nc2)CC1 and report it.
5

Which value of Ratio IC50 has been reported for CC1=Nc2c(F)cc(-c3nc(Nc4ccc(N5CCN(C(C)C)CC5)cn4)ncc3F)cc2C12CCCC2 in the records?
106

Any idea what its Ratio IC50 is? The compound is CCC1(C)C(C)=Nc2ccc(-c3nc(Nc4ccc(C5CCNCC5)cn4)ncc3F)cc21 (centres undefined)
10

====

Test: AUC (0 to infinity) in Sprague-Dawley rat at 2 mg/kg, iv administered as single dose by LC-MS/MS analysis
Format: ADME, organism-based
Design: dose 2 mg/kg, route intravenous, time infinity
Settings: Sprague-Dawley, in vivo
Please provide measured AUC(0-inf) for the entries that follow.
API: value field is a number in ng·h/mL; no unit string.

Name the recorded AUC(0-inf) for CCN1CCN(c2ccc(Nc3ncc(F)c(-c4cc(F)c5c(c4)C4(CCCC4)C(C)=N5)n3)nc2)CC1 .
2230

Request the reported AUC(0-inf) associated with CC1=Nc2c(F)cc(-c3nc(Nc4ccc(N5CCNCC5)cn4)ncc3F)cc2C12CCCC2
1000

Returns the measured AUC(0-inf) for the input compound. Input: CCC1(C)C(C)=Nc2c(F)cc(-c3nc(Nc4ccc(C5CCN(C)CC5)cn4)ncc3F)cc21 (stereo not given)
447

So what does the record say about AUC(0-inf) for CCC1(CC)C(C)=Nc2c(F)cc(-c3nc(Nc4ccc(N5CCNCC5)cn4)ncc3F)cc21 ?
270

Give the measured AUC(0-inf) of CC1=Nc2ccc(-c3nc(Nc4ccc(N5CCN(C)CC5)cn4)ncc3F)cc2C12CCCC2 .
458

Dear colleague, I am looking for the recorded AUC(0-inf) of the following compound: CC1=Nc2c(F)cc(-c3nc(Nc4ccc(C5CCNCC5)cn4)ncc3F)cc2C12CCCC2
1370

Recorded AUC(0-inf) of CCN1CCN(Cc2ccc(Nc3ncc(F)c(-c4cc(F)c5c(c4)C4(CCCC4)C(C)=N5)n3)nc2)CC1 , please.
686

Consider the compound CCC1(C)C(C)=Nc2c(F)cc(-c3nc(Nc4ccc(N5CCNCC5)cn4)ncc3F)cc21 (stereo not given) and give its measured AUC(0-inf).
270

Given the compound CCN1CCN(Cc2ccc(Nc3ncc(F)c(-c4cc(F)c5c(c4)C(C)(CC)C(C)=N5)n3)nc2)CC1 (stereo not given) , what is its reported AUC(0-inf)?
696

Fill in: AUC(0-inf) of CC1=Nc2c(F)cc(-c3nc(Nc4ccc(N5CCN(C)CC5)cn4)ncc3F)cc2C12CCCC2 is ___
796

====

Species on record: Homo sapiens
Test: Selectivity ratio of IC50 for CDK1/Cyclin-A2 (unknown origin) to IC50 for CDK6/Cyclin-D3 (unknown origin)
Can you tell me Ratio IC50 for the items I'm about to list?
Keep the answer to the number alone.

Query (compound): CCC1(CC)C(C)=Nc2c(F)cc(-c3nc(Nc4ccc(N5CCNCC5)cn4)ncc3F)cc21 ; field requested: Ratio IC50
27

What Ratio IC50 value was documented for this compound, CC1=Nc2c(F)cc(-c3nc(Nc4ccc(N5CCNCC5)cn4)ncc3F)cc2C1(C)C ?
52

Could you tell me which Ratio IC50 is on file for CCN1CCN(Cc2ccc(Nc3ncc(F)c(-c4cc(F)c5c(c4)C(C)(CC)C(C)=N5)n3)nc2)CC1 (centres undefined) ?
37

What measured Ratio IC50 goes with CC1=Nc2ccc(-c3nc(Nc4ccc(N5CCNCC5)cn4)ncc3F)cc2C12CCCC2 ?
58

Look up Ratio IC50: CCC1(C)C(C)=Nc2ccc(-c3nc(Nc4ccc(N5CCNCC5)cn4)ncc3F)cc21 (centres undefined)
14

Ratio IC50 lookup needed for CC1=Nc2c(F)cc(-c3nc(Nc4ccc(N5CCN(C)CC5)cn4)ncc3F)cc2C12CCCC2 , thanks.
16

Would you mind telling me what Ratio IC50 value was observed for CCN1CCN(Cc2ccc(Nc3ncc(F)c(-c4cc(F)c5c(c4)C(CC)(CC)C(C)=N5)n3)nc2)CC1 ?
9

Fill in: Ratio IC50 of CCN1CCC(c2ccc(Nc3ncc(F)c(-c4ccc5c(c4)C(C)(CC)C(C)=N5)n3)nc2)CC1 (centres undefined) is ___
6

What value of Ratio IC50 has been reported for the following compound? CCN1CCN(c2ccc(Nc3ncc(F)c(-c4ccc5c(c4)C4(CCCC4)C(C)=N5)n3)nc2)CC1
18

====

Assay: AUC (0 to infinity) in ICR mouse at 2 mg/kg, iv administered as single dose by LC-MS/MS analysis
Type: ADME, organism-based
Design: dose 2 mg/kg, time infinity, route intravenous
Conditions: in vivo
quantity.name: AUC(0-inf) (ng·h/mL)
# unit: ng·h/mL | format: bare number

Would you mind telling me what AUC(0-inf) value was observed for CC1=Nc2c(F)cc(-c3nc(Nc4ccc(C5CCN(C)CC5)cn4)ncc3F)cc2C12CCCC2 ?
1330

====

Biological target: Cyclin-dependent kinase 4/cyclin D1 (Homo sapiens)
Sequence (P11802 whole entry): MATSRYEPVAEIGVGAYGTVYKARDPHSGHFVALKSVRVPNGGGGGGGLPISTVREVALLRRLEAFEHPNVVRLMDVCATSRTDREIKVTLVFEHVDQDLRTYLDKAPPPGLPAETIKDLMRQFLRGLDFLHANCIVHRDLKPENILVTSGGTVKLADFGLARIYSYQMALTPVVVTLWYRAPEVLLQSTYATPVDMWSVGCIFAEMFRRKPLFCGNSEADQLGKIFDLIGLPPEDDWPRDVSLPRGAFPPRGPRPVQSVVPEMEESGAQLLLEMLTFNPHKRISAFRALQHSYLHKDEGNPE
Sequence (P24385 whole entry, further chain): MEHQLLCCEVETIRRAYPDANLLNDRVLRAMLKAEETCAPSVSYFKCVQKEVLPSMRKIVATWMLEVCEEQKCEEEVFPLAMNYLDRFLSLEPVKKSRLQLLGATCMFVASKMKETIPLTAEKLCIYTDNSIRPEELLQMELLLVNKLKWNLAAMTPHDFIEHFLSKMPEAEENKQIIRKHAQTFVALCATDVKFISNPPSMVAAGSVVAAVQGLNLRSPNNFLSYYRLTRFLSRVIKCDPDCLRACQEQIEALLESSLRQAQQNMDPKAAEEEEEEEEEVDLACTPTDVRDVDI
Assay: Inhibition of CDK4/Cyclin-D1 (unknown origin) using histone-H1 as substrate after 90 mins by ADP-Glo assay
For each entry below, report its log10(IC50) value.
Answers are given as log10 of IC50 in nM.

# log10(IC50) lookup, item CCC1(C)C(C)=Nc2ccc(-c3nc(Nc4ccc(N5CCNCC5)cn4)ncc3F)cc21 (configuration not stated)
1.45

I have this compound here, CC1=Nc2c(F)cc(-c3nc(Nc4ccc(N5CCNCC5)cn4)ncc3F)cc2C12CCCC2 , and I need its recorded log10(IC50).
0.90

Entry CCN1CCN(Cc2ccc(Nc3ncc(F)c(-c4cc(F)c5c(c4)C(C)(CC)C(C)=N5)n3)nc2)CC1 (configuration not stated) : reported log10(IC50) = ?
1.52

log10(IC50) for CCN1CCC(c2ccc(Nc3ncc(F)c(-c4ccc5c(c4)C(C)(CC)C(C)=N5)n3)nc2)CC1 (configuration not stated) ?
1.62

Requested field: log10(IC50). Item: CCC1(CC)C(C)=Nc2c(F)cc(-c3nc(Nc4ccc(N5CCN(C)CC5)cn4)ncc3F)cc21
1.00

What value of measured log10(IC50) is listed for CC1=Nc2ccc(-c3nc(Nc4ccc(C5CCNCC5)cn4)ncc3F)cc2C12CCCC2 ?
0.60

Any idea what its log10(IC50) is? The compound is CCN1CCN(Cc2ccc(Nc3ncc(F)c(-c4cc(F)c5c(c4)C4(CCCC4)C(C)=N5)n3)nc2)CC1
1.08
